# Experimental Target: sodium-proton exchanger of subtype 3 (NHE3) (Homo sapiens)
# Construct: expressed in transfected cells
# Sequence (P48764 26-834, species assumed): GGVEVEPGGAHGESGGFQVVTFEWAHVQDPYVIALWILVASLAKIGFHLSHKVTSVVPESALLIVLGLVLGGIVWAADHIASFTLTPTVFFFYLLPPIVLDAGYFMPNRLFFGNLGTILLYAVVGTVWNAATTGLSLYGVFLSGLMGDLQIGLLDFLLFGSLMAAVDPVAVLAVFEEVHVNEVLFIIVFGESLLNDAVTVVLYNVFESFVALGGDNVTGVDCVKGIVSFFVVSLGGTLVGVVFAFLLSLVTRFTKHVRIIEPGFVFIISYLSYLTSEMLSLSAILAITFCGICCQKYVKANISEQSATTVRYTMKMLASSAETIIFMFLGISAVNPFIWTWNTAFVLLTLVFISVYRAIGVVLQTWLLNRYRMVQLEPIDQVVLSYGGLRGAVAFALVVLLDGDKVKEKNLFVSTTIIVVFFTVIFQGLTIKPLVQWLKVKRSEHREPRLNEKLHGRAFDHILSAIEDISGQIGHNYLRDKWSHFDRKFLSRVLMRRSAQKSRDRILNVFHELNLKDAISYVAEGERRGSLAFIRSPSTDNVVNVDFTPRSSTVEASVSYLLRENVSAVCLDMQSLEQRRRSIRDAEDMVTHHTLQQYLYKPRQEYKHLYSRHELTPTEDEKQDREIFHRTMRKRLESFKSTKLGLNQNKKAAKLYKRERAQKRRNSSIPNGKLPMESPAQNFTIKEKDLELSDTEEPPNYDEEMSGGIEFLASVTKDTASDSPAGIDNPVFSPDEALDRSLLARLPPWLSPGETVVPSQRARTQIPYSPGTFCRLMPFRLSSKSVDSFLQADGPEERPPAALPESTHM
# Procedure Text: Recovery of intracellular pH (pHi) after acidification in LAP1 cells stably expressing NHE3 (BCECF fluorescence, FLIPR)
# Format: cell-based
# Condition Description: LAP1 cells stably expressing NHE3; pH recovery after acidification; range 1 is % inhibition at 10 μM; read-out: Activity range (inhibitory effect on NHE3)
Assay Endpoint: IC50

Previously resolved entries follow.
                                   compound            result
0  N[C@@H]1CCCN([C@H]2CCc3ccccc3[C@@H]2Oc2ccc(N3C(=O)CCC3=O)cc2)C1 (racemic) [Example 326]  1000 to 10000 nM
1  CS(=O)(=O)c1ccc(O[C@@H]2c3cc(Cl)cc(Cl)c3C[C@H]2n2ccnc2)cc1 (racemic) [Example 278]  1000 to 10000 nM
2  O=C1CCCN1c1ccc(O[C@H]2c3cc(Cl)cc(Cl)c3C[C@@H]2N2CC[C@@H](O)C2)c(Cl)c1 [Example 321]         < 1000 nM
3  N[C@@H]1CCCN([C@@H]2Cc3ccccc3[C@H]2Oc2ccc3ccncc3c2)C1 (racemic) [Example 85]  1000 to 10000 nM
4  NCCc1c[nH]c2ccc(O[C@H]3c4ccccc4CC[C@@H]3N3CCC[C@H](N)C3)cc12 (racemic) [Example 201]  1000 to 10000 nM
5  Cc1cc(O[C@@H]2c3ccccc3C[C@H]2N2C[C@H]3CNC[C@H]3C2)cc(C)c1C#N (racemic) [Example 505]  1000 to 10000 nM

// below: IC50 requested for another compound
Prompt: Which measured IC50 belongs to Clc1cc(Cl)c2c(c1)[C@H](Oc1ccc(-n3cncn3)cc1)[C@@H](N1CCNCC1)C2 (racemic) [Example 276] , tested on sodium-proton exchanger of subtype 3 (NHE3) (Homo sapiens)?
Response: < 1000 nM
